- study system: T1, 4H391-AA
- T1 chain: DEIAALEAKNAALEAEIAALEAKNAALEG
- test summary: two-hybrid library CCmax;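 further: natural log of median RNA to DNA barcode read ratio; higher means stronger binding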
- condition description: mean of both orientations
experimental readout: interaction score

binder="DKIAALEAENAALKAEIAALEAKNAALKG [4H2248-AA]" reading=-1.16
binder="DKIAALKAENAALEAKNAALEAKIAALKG [4H2742-AA]" reading=-1.21
binder="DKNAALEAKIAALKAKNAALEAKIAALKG [4H3446-AA]" reading=0.726

(a) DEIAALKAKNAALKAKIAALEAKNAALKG [4H1000-AA]
(b) DKNAALKAEIAALKAKNAALKAKIAALEG [4H3709-AA]
(c) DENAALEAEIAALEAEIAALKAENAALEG [4H1035-AA]
Rank entries according to their interaction score, from the largest number down. Reply format: the labels, ordered as requested.
a, b, c
(a: 0.223, b: -1.04, c: -1.84)
